Some binders, each annotated with its measured pKd.
- TARGET OR SYSTEM: T1, Cynomolgus OSM (cynomolgus, UniProt A0A2K5VPC6 26-221)
- T1 construct: also called Cyno OSM; cynomolgus macaque OSM
- T1 sequence: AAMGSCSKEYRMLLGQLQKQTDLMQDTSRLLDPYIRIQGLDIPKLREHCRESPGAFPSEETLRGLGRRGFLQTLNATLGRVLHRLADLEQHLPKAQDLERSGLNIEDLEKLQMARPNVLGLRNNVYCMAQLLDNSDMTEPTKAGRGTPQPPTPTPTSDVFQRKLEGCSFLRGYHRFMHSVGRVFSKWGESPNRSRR
- ASSAY OVERVIEW: BIAcore kinetics, purified antibody
pKd: −log10 of the molar value.
READOUT KIND: pKd

binder="Humanised 10G8 H1L1 (antibody, V domains shown) VH: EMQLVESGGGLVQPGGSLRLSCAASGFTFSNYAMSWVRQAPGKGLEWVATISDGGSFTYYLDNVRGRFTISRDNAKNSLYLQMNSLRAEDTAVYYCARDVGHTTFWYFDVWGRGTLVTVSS VL: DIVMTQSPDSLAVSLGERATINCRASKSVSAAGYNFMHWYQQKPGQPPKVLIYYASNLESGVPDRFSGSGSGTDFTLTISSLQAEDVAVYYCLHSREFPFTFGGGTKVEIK" number=9.59
binder="Humanised 10G8 H2L4 (antibody, V domains shown) VH: EVQLVESGGGLVQPGGSLRLSCAASGFTFSNYAMSWVRQAPGKGLEWVATISDGGSFTYYLDNVRGRFTISRDNAKNSLYLQMNSLRAEDTAVYYCARDVGHTTFWYFDVWGSGTLVTVSS VL: DIVMTQSPDSLAVSLGERATINCRASKSVSAAGYNFMHWYQQKPGQPPKVLIYYASNLESGVPDRFSGSGSGTDFTLTISSLQAEDVVVYYCLHSREFPFTFGGGTNVEIK" number=9.69
binder="Humanised 10G8 H0L4 (antibody, V domains shown) VH: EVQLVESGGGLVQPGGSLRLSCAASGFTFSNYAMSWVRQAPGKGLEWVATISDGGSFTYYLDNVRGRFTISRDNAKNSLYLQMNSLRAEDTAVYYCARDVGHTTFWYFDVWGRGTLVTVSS VL: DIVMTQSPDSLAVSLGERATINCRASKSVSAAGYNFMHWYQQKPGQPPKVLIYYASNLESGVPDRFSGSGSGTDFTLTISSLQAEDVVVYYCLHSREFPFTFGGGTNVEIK" number=9.62
